All values here come from patent US20240199571A1.

system tested: human LSD1 (Homo sapiens (Human), UniProt O60341)
test summary: Experiment 1B: in vitro LSD1 enzyme activity, enzyme-coupled fluorescence (HRP/Amplex Red), H3(1-21)K4me2 peptide 10 μM (Reaction Biology)
Type: biochemical
condition context: histone H3(1-21)K4me2 peptide 10 μM
Where a name gives a salt, the structure may show the parent alone.
property name: log10(IC50) (log10 of the value in nM)
Annotation: log10 of IC50, nM basis.

QUERY: Give reported log10(IC50) for N#Cc1ccc(-c2cc(C(=O)N3CCC[C@@H](N)C3)sc2-c2ccc3c(c2)nnn3CC2(O)CCC2)cc1F [Hydrochloride of compound 82] (human LSD1 (Homo sapiens (Human), UniProt O60341))
RESULT: 0.48

QUERY: Give reported log10(IC50) for COc1ccc(-c2sc(C(=O)N3CCNC(C)CC3)cc2-c2ccc(C#N)c(F)c2)cc1F (stereo not drawn) [Hydrochloride of compound 29] (human LSD1 (Homo sapiens (Human), UniProt O60341))
RESULT: 1.47

QUERY: Give reported log10(IC50) for CC(C)(O)Cn1nnc2cc(-c3sc(C(=O)N4CCCNCC4)cc3-c3ccc(C#N)c(F)c3)c(F)c(F)c21 [Hydrochloride of compound 111] (human LSD1 (Homo sapiens (Human), UniProt O60341))
RESULT: 1.25

QUERY: Give reported log10(IC50) for CN[C@@H]1CCCN(C(=O)c2cc(-c3ccc(C#N)c(F)c3)c(-c3cc4nnn(CC(C)(C)O)c4c(F)c3F)s2)C1 [Hydrochloride of compound 98] (human LSD1 (Homo sapiens (Human), UniProt O60341))
RESULT: 1.10

QUERY: Give reported log10(IC50) for N#Cc1ccc(-c2cc(C(=O)N3CCC[C@@H](N)C3)sc2-c2ccc3c(c2)CNC3=O)cc1F [Hydrochloride of compound 46] (human LSD1 (Homo sapiens (Human), UniProt O60341))
RESULT: 1.91

QUERY: Give reported log10(IC50) for N#Cc1ccc(-c2cc(C(=O)N3CCCNCC3)sc2-c2cc3nnn(CC4(O)CCC4)c3c(F)c2F)cc1F [Hydrochloride of compound 100] (human LSD1 (Homo sapiens (Human), UniProt O60341))
RESULT: 1.15
